Ref: patent US20100261620A1

# subject.of.test: IL-13 (Homo sapiens (Human), UniProt P35225 35-146, limits assumed)
# Sequence (P35225 35-146 limits assumed): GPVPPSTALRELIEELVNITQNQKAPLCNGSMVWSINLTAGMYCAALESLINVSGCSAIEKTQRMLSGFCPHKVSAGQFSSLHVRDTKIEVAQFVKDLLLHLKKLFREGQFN
# experimental.details: Biacore
Would you kindly list pKd for each of these binders?
Answers are plain numbers, as −log10 of the molar value.

M464 (antibody, V domains shown, anti-IL-13, human IgG1) VH: QVTLKESGPVLVKPTETLTLTCTVSGFSLSTYGMGVGWIRQPPGKALEWLAHIWWDDVKRYNPALKSRLTISKDTSKSQVVLTMTNMDPVDTATYYCARMGSDYDVWFDYWGQGTLVTVSS VL: EIVLTQSPATLSLSPGERATLSCRASKSISKYLAWYQQKPGQAPRLLIYSGSTLQSGIPARFSGSGSGTDFTLTISSLEPEDFAVYYCQQHEWGPYTFGQGTKLEIK
10.26

# per-item lookup of pKd; items listed below
1. M473 (antibody, V domains shown, anti-IL-13, human IgG1) VH: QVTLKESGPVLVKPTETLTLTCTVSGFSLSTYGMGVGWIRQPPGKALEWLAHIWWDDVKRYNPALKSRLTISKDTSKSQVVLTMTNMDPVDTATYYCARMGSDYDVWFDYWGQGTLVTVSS VL: EIVLTQSPATLSLSPGERATLSCRASKSISKYLAWYQQKPGQAPRLLIYSGSTLQSGIPARFSGSGSGTDFTLTISSLEPEDFAVYYCQQHDRDPYTFGQGTKLEIK
2. M444 (antibody, V domains shown, anti-IL-13, human IgG1) VH: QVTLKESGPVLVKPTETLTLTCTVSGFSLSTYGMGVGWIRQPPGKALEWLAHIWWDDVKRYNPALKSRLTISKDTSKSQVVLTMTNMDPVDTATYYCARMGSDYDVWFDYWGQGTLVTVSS VL: EIVLTQSPATLSLSPGERATLSCRASKSISKYLAWYQQKPGQAPRLLIYSGSTLQSGIPARFSGSGSGTDFTLTISSLEPEDFAVYYCQQHVWGPYTFGQGTKLEIK
3. M474 (antibody, V domains shown, anti-IL-13, human IgG1) VH: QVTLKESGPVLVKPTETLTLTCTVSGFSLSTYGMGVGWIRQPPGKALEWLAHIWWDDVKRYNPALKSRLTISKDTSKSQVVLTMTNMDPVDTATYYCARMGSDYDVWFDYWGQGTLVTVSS VL: EIVLTQSPATLSLSPGERATLSCRASKSISKYLAWYQQKPGQAPRLLIYSGSTLQSGIPARFSGSGSGTDFTLTISSLEPEDFAVYYCQQHDLGPYTFGQGTKLEIK
4. M442 (antibody, V domains shown) VH: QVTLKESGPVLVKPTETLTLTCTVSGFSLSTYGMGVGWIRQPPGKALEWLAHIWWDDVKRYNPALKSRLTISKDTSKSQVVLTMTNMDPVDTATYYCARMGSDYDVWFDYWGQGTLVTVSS VL: EIVLTQSPATLSLSPGERATLSCRASKSISKYLAWYQQKPGQAPRLLIYSGSTLQSGIPARFSGSGSGTDFTLTISSLEPEDFAVYYCQQQDGPYTFGQGTKLEIK

Reply:
1: 9.51; 2: 9.74; 3: 9.44; 4: 10.40
